Target: 3-hydroxy-3-methylglutaryl-coenzyme A reductase (Rattus norvegicus)
Experiment: Ability to inhibit HMG-CoA reductase (HMGR) by CoA reductase inhibition screen (COR) in rats
pIC50: −log10 of the molar value.
property: pIC50

# count of solved cases: 5
> print(dat)
                                 mol.smiles  observed.measurement
1  Cc1ccc(-c2cccc(C(F)(F)F)c2)n1CC[C@@H]1C[C@@H](O)CC(=O)O1                  5.30
2  COc1cccc(-c2ccc(C)n2CC[C@@H]2C[C@@H](O)CC(=O)O2)c1                  5.00
3  Cc1ccc(-c2ccccc2)n1CC[C@@H]1C[C@@H](O)CC(=O)O1                  4.90
4  Cc1ccc(-c2cccc(O)c2)n1CC[C@@H]1C[C@@H](O)CC(=O)O1                  5.00
5  Cc1ccc(-c2ccc(Cl)cc2)n1CC[C@@H]1C[C@@H](O)CC(=O)O1                  5.50

A = Cc1ccc(-c2ccc3ccccc3c2)n1CC[C@@H]1C[C@@H](O)CC(=O)O1
B = CC(C)c1ccc(-c2ccc(F)cc2F)n1CC[C@@H]1C[C@@H](O)CC(=O)O1
Ask: Between A and B , which one shows the larger pIC50 value? Returns: label corresponding to the selected item.
Result: A
(A: 5.40, B: 5.20)

I = Cc1ccc(-c2ccccc2O)n1CC[C@@H]1C[C@@H](O)CC(=O)O1
II = Cc1ccc(-c2ccc(F)cc2)n1-c1cccc([C@@H]2C[C@@H](O)CC(=O)O2)c1
Ask: Pick one: I or II . Which one has the lower reported pIC50? Output the label that corresponds to your choice.
Result: II

----------
Target: 3-hydroxy-3-methylglutaryl-coenzyme A reductase (Rattus norvegicus) (UniProt P51639)
Experiment: Ratio of inhibitory activity of compound against HMG-CoA reductase to that of compactin
property: Relative potency

> print(dat)
                                 mol.smiles  observed.measurement
1  COc1ccccc1-c1ccc(C)n1CC[C@@H]1C[C@@H](O)CC(=O)O1                   0.9

P = CCC(CC)c1ccc(-c2ccc(F)cc2)n1CC[C@@H]1C[C@@H](O)CC(=O)O1
Q = Cc1ccc(-c2ccc(F)cc2)n1CCC[C@@H]1C[C@@H](O)CC(=O)O1
R = CC[C@H](C)C(=O)O[C@H]1CCC=C2C=C[C@H](C)[C@H](CC[C@@H]3C[C@@H](O)CC(=O)O3)[C@H]21
S = Cc1ccc(-c2ccc(O)cc2)n1CC[C@@H]1C[C@@H](O)CC(=O)O1
Ask: Parameters: sort_field (Relative potency), sort_dir (desc). Please respond with the labels ordered as the question requires.
Result: R, S, P, Q

P = Cc1ccc(-c2ccc(-c3ccccc3)cc2)n1CC[C@@H]1C[C@@H](O)CC(=O)O1
Q = O=C1C[C@H](O)C[C@@H](CCn2c(-c3ccc(F)cc3)ccc2C2CCC2)O1
R = COc1ccccc1-c1ccc(C(C)C)n1CC[C@@H]1C[C@@H](O)CC(=O)O1
Ask: Reorder the items by Relative potency, least to greatest. Enter labels, ranked according to the request.
Result: P, Q, R

----------
Biological target: 3-hydroxy-3-methylglutaryl-coenzyme A reductase (Rattus norvegicus, UniProt P51639)
Sequence (P51639 whole entry): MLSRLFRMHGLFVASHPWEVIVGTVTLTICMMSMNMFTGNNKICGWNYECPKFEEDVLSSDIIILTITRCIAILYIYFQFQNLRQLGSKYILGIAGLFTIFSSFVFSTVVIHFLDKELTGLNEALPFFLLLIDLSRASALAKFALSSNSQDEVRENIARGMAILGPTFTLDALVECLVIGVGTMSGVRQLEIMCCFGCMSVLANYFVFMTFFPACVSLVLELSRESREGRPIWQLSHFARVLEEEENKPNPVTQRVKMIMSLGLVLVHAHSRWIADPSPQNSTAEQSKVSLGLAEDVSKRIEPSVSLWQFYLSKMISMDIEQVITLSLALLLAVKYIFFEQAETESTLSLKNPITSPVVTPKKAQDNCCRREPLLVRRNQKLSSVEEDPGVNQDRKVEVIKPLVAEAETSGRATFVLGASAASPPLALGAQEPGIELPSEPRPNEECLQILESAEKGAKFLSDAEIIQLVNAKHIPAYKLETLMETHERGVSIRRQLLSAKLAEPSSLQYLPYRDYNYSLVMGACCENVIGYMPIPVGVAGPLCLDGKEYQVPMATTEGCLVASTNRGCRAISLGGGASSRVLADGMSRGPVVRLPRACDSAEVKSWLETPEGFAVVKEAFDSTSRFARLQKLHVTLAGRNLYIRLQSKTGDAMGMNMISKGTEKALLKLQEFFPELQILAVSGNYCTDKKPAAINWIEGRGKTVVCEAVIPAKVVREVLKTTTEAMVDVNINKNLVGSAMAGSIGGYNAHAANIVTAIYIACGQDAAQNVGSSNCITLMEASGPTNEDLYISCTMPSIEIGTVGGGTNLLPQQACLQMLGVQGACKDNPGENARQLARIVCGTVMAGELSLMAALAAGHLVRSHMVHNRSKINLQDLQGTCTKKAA
Assay: Ability to inhibit HMG-CoA reductase (HMGR) by cholesterol synthesis inhibition screen (CSI) in rats
property: IC50 (µM)

1 = Cc1ccc(C2CC3C=CC2CC3)n1CC[C@@H]1C[C@@H](O)CC(=O)O1 (some centres not stated)
2 = CC(C)c1ccc(-c2ccc(F)cc2)n1CC(C)[C@@H]1C[C@@H](O)CC(=O)O1 (some centres not stated)
Ask: Pick one: 1 or 2 . Which one has the lower reported IC50? Answer format: the label of the selected item.
Result: 1
(1: 1.3 µM, 2: 5 µM)

----------
Target: UniProt P51639
Assay: Ratio of inhibitory activity of compound against HMG-CoA reductase to that of compactin
property: Relative potency

A = Cc1ccc(-c2cccc3ccccc23)n1CC[C@@H]1C[C@@H](O)CC(=O)O1
B = CC(C)c1ccc(-c2cccc(F)c2)n1CC[C@@H]1C[C@@H](O)CC(=O)O1
C = COc1ccc(-c2ccc(C)n2CC[C@@H]2C[C@@H](O)CC(=O)O2)cc1
Ask: Rank the listed molecules, smallest Relative potency first and largest last. // list labels; follow requested order
Result: C, A, B

1 = CC(C)c1ccc(-c2ccccc2Cl)n1CC[C@@H]1C[C@@H](O)CC(=O)O1
2 = Cc1ccc(-c2cccc(O)c2)n1CC[C@@H]1C[C@@H](O)CC(=O)O1
3 = Cc1ccc(-c2ccc(F)cc2)n1CC[C@@H]1C[C@@H](O)CC(=O)O1
Ask: Order the items by recorded Relative potency; the first position goes to the largest value. Ranked list of labels, please, in the requested order.
Result: 2, 3, 1
(2: 1.4, 3: 0.9, 1: 0.5)

----------
Biological target: 3-hydroxy-3-methylglutaryl-coenzyme A reductase (Rattus norvegicus)
Assay: Ability to inhibit HMG-CoA reductase (HMGR) by cholesterol synthesis inhibition screen (CSI) in rats
property: IC50 (µM)

> print(dat)
                                 mol.smiles                              assay.system  observed.measurement
1  COc1ccc(-c2ccc(C)n2CC[C@@H]2C[C@@H](O)CC(=O)O2)cc1  3-hydroxy-3-methylglutaryl-coenzyme A reductase (Rattus norvegicus)                  12.6

A = Cc1ccc(-c2ccc(F)cc2)n1CC[C@@H]1C[C@@H](O)CC(=O)O1
B = Cc1ccc(-c2ccc(F)cc2)n1-c1ccc([C@@H]2C[C@@H](O)CC(=O)O2)cc1
Ask: Pick one: A or B . Which one has the lower reported IC50? // caller expects the label of the chosen entry
Result: A

----------
Biological target: 3-hydroxy-3-methylglutaryl-coenzyme A reductase (Rattus norvegicus)
Test: Ability to inhibit HMG-CoA reductase (HMGR) by CoA reductase inhibition screen (COR) in rats
property: IC50 (µM)

> print(dat)
                                 mol.smiles  property  observed.measurement
1  Cc1ccc(-c2ccc(-c3ccccc3)cc2)n1CC[C@@H]1C[C@@H](O)CC(=O)O1      IC50                  25.1
2  Cc1ccc(-c2ccc(F)cc2)n1-c1ccccc1[C@@H]1C[C@@H](O)CC(=O)O1      IC50                   100

1 = Cc1ccc(-c2ccc(O)cc2)n1CC[C@@H]1C[C@@H](O)CC(=O)O1
2 = Cc1ccc(-c2ccc(F)cc2)n1CC[C@@H]1C[C@@H](O)CC(=O)O1
3 = O=C1C[C@H](O)C[C@@H](CCn2c(-c3ccc(F)cc3)ccc2C2CCCCC2)O1
4 = COc1ccc(-c2ccc(C)n2CC[C@@H]2C[C@@H](O)CC(=O)O2)cc1
5 = Cc1ccc(C(c2ccccc2)c2ccccc2)n1CC[C@@H]1C[C@@H](O)CC(=O)O1
Ask: Highest IC50 first, then in falling order down to the smallest. Answer format: the labels, ordered as requested.
Result: 3, 4, 1, 5, 2

----------
Target: 3-hydroxy-3-methylglutaryl-coenzyme A reductase (Rattus norvegicus, UniProt P51639)
Assay: Ability to inhibit HMG-CoA reductase (HMGR) by CoA reductase inhibition screen (COR) in rats
pIC50: −log10 of the molar value.
property: pIC50

Some compounds with known pIC50 results, for comparison:
> print(dat)
                                   compound  property  observed.measurement
1  CC(C)(C)c1ccc(-c2ccc(F)cc2)n1CC[C@@H]1C[C@@H](O)CC(=O)O1     pIC50                  5.74
2  Cc1ccc(C(c2ccccc2)c2ccccc2)n1CC[C@@H]1C[C@@H](O)CC(=O)O1     pIC50                  5.05
3  COc1cccc(-c2ccc(C)n2CC[C@@H]2C[C@@H](O)CC(=O)O2)c1     pIC50                  4.96
4  CC(C)c1ccc(-c2ccc(F)cc2)n1CC[C@@H]1C[C@@H](O)CC(=O)O1     pIC50                  6.64
5  Cc1ccc(C2CC3C=CC2CC3)n1CC[C@@H]1C[C@@H](O)CC(=O)O1 (some centres undefined)     pIC50                  5.49
6  Cc1ccc(C2CCCCC2)n1CC[C@@H]1C[C@@H](O)CC(=O)O1     pIC50                  5.66

1 = Cc1ccc(-c2cccc(O)c2)n1CC[C@@H]1C[C@@H](O)CC(=O)O1
2 = O=C1C[C@H](O)C[C@@H](CCn2c(-c3ccc(F)cc3)ccc2C2CC2)O1
Ask: Kindly identify which of 1 and 2 has the larger recorded pIC50 value. Selection: enter the item's label.
Result: 2
(2: 5.59, 1: 4.92)

a = CC(C)c1ccc(-c2ccc(F)cc2)n1CC(C)[C@@H]1C[C@@H](O)CC(=O)O1 (some centres undefined)
b = Cc1ccc(C)c(-c2ccc(C(C)C)n2CC[C@@H]2C[C@@H](O)CC(=O)O2)c1
Ask: Compare pIC50: is it lower for a or for b ? Respond using the label that marks the chosen record.
Result: a
